Below, each of the molecules is paired with its reported IC50 at 48 h value.
- assay-protocol: Cytotoxicity against human HepG2 cells assessed as cell growth inhibition incubated for 48 hrs by CellTiter-Glo reagent based analysis
- Type: toxicity

Worked set:
* Cc1cc(C)cc(NC(=O)COc2cc(C(F)(F)F)nc3ccc(OC(F)(F)F)cc23)c1 | > 100 µM
* Cc1cc(C)cc(NC(=O)COc2cc(C)nc3ccc(Cl)cc23)c1 | > 100 µM
* Cc1cc(C)cc(NC(=O)COc2cc(C)nc3ccc(C)cc23)c1 | 15.8 µM
* COc1ccc2nc(C)cc(OCC(=O)Nc3ccncc3)c2c1 | > 100 µM
* COc1ccc2nc(C)cc(OCC(=O)Nc3ccncn3)c2c1 | > 100 µM
* COc1ccc2nc(C)cc(OCC(=O)Nc3ccccc3)c2c1 | 39.8 µM

Requested field: IC50 at 48 h. Item: COc1cc2nc(C)cc(OCC(=O)Nc3cc(C)cc(C)c3)c2cc1OC 10 µM

IC50 at 48 h for COc1ccc2nc(C)cc(OCc3nc4ccccc4[nH]3)c2c1 ? > 100 µM

Which measured IC50 at 48 h value corresponds to COc1ccc2nc(C)cc(OCC(=O)NNC(=O)c3ccncc3)c2c1 ? > 100 µM

---

# pIC50 listing for each entry below
- measurement-target: UniProt:Q12809
- Sequence (Q12809 whole entry): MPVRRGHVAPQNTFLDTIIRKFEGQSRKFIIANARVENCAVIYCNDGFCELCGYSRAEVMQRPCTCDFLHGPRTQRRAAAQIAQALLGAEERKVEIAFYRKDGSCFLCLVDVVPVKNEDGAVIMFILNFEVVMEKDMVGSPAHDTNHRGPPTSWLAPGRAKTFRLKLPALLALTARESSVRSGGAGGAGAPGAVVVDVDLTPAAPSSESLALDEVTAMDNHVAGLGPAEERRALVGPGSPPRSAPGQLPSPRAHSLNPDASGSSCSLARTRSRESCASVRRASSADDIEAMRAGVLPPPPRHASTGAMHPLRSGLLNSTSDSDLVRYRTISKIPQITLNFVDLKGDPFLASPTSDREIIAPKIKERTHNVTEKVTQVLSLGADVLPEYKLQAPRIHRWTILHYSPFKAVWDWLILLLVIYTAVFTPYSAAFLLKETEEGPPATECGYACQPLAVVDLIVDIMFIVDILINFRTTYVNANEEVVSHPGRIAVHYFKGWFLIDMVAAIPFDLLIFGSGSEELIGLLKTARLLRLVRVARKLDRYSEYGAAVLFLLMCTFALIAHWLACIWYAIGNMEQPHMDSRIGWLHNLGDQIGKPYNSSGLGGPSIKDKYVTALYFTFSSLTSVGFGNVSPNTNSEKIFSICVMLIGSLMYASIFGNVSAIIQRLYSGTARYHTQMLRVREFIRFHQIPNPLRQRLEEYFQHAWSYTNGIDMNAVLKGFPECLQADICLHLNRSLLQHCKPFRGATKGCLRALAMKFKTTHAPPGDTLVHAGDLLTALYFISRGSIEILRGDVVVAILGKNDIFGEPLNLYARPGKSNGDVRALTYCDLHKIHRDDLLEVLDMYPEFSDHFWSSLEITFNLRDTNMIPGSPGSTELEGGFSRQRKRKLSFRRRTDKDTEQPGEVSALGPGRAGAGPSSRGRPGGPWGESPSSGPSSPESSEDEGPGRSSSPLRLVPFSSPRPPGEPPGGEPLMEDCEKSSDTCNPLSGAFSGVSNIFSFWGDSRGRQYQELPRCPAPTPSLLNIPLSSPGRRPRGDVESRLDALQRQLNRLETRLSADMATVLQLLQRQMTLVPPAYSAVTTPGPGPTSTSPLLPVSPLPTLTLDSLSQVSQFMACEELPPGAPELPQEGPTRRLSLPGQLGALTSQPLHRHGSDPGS
pIC50: −log10 of the molar value.

Suppose we examine the molecule COc1ccc2nc(C)cc(OCC(=O)Nc3cc(C)c(F)c(C)c3)c2c1 ; what pIC50 value has been reported? < 4.30

What value of pIC50 has been reported for the following molecule? COc1ccc2nc(C)cc(OCC(=O)Nc3cc(C)cc(C)c3)c2c1 < 4.30

Looking for the measured pIC50 of COc1ccc2nc(C)cc(OCc3nc4cc(C)ccc4o3)c2c1 , can you help? < 4.30

---

- assay-protocol: Artificial membrane permeability of the compound incubated for 3 hrs by HPLC analysis
- Format: ADME
- test-context: PAMPA, read-out: permeability
property: Papp at 3 h

• Cc1cc(C)cc(NC(=O)COc2cc(C)nc3ccc(C(F)(F)F)cc23)c1 = < 30 nm/s

Fill blank: measured Papp at 3 h of the molecule Cc1cc(C)cc(NC(=O)COc2cc(C(F)(F)F)nc3ccc(OC(F)(F)F)cc23)c1 is ____. < 3 nm/s

Param item = Cc1cc(C)cc(NC(=O)COc2cc(C(F)(F)F)nc3c(C(F)(F)F)cccc23)c1 ; retrieve measured Papp at 3 h. < 10 nm/s

Which value of Papp at 3 h has been reported for COc1ccc2nc(C)c3nc(C(=S)Nc4cc(C)cc(C)c4)sc3c2c1 in the records? < 30 nm/s

Report Papp at 3 h for COc1ccc2nc(C(F)(F)F)cc(OCC(=O)Nc3cc(C)cc(C)c3)c2c1 please. < 10 nm/s

Record request: Papp at 3 h value, item COc1ccc2nc(C)cc(OCC(=O)NCc3cc(C)cc(C)c3)c2c1 < 3 nm/s

Suppose we examine the molecule COc1ccc2nc(C)cc(OCC(=O)NC3CONC3=O)c2c1 (configuration not stated) ; what Papp at 3 h value has been reported? < 10 nm/s

---

- assay-protocol: Kinetic aqueous solubility of compound in phosphate buffer at pH 7.4 incubated for 1 hrs by CLND assay
- Format: physicochemical
- test-context: read-out: Kinetic_solubility
Binary classification by solubility kinetic at 1 h, with 30 µM as an inclusive lower bound for class 1; all other cases are class 0.

• COc1ccc2nc(C)c3nc(C(=S)Nc4cc(C)cc(C)c4)sc3c2c1 = class 1
• COc1ccc2nc(C)cc(OCC(=O)Nc3cc(OC)c(Cl)cc3OC)c2c1 = class 0
• COc1ccc2nc(C)cc(NCC(=O)Nc3cc(C)cc(C)c3)c2c1 = class 1
• COc1ccc2nc(C)cc(OCC(=O)Nc3ccc(Cl)c(C(F)(F)F)c3)c2c1 = class 0

hey, is solubility kinetic at 1 h for this one >= 30 µM? COc1ccc2nc(C)cc(OCC(=O)Nc3cc(C)ccc3OC)c2c1 class 0

Check if solubility kinetic at 1 h >= 30 µM (inclusive). Item: Cc1cc(C)cc(NC(=O)COc2cc(C(F)(F)F)nc3cc4c(cc23)OCO4)c1 class 0

Does the reported solubility kinetic at 1 h for Cc1cc(C)cc(NC(=O)COc2cc(C)nc3ccc(C)cc23)c1 fall at or above the 30 µM mark? class 1

Can Cc1cc(C)cc(NC(=O)COc2cc(C(F)(F)F)nc3c(C(F)(F)F)cccc23)c1 be said to have solubility kinetic at 1 h at or above 30 µM? class 0

Is solubility kinetic at 1 h at least 30 µM? Consider COc1ccc2nc(C)cc(OCC(=O)Nc3cccnc3)c2c1 class 1

State whether the measured solubility kinetic at 1 h reaches 30 µM, counting equality as reaching it, for COc1ccc2nc(C)cc(OC(C)C(=O)Nc3cc(C)cc(C)c3)c2c1 (stereo not given) class 1

Threshold query (solubility kinetic at 1 h >= 30 µM) on COc1ccc2nc(C)cc(OCC(=O)Nc3nc(C)c(C)s3)c2c1 class 1

---

- assay-protocol: Microsomal stability in human liver microsomes assessed as half life at 0.5 uM preincubated followed by NADPH addition and measured upto 30 mins by LC-MS/MS analysis
- Type: ADME, Microsome
# if measured half-life at 0.5 µM < 20 min: class 1  # else: class 0

Example entries and their recorded answers appear below.
- Cc1cc(C)cc(NC(=O)COc2cc(C)nc3ccc(C)cc23)c1: class 0
- COc1ccc2nc(C)cc(OCC(=O)Nc3cc(C)c(F)c(C)c3)c2c1: class 0
- COc1ccc2nc(C)cc(OCC(=O)Nc3cc(C)cc(C)c3)c2c1: class 0

# check: half-life at 0.5 µM < 20 min for COc1ccc2nc(C)cc(OC(C)(C)C(=O)Nc3cc(C)cc(C)c3)c2c1 class 1

half-life at 0.5 µM strictly < 20 min for this molecule? COc1ccc2nc(C)cc(OCC(=O)Nc3cccc(C)c3)c2c1 class 0

Is half-life at 0.5 µM strictly under 20 min for the entry Cc1ncc2n1-c1ccc(Cl)cc1C(c1ccccc1F)=NC2 [MIDAZOLAM] ? class 1

A record lists COc1ccc2nc(C)cc(OCc3nc4cc(C)ccc4o3)c2c1 . Is its half-life at 0.5 µM below 20 min? class 1

half-life at 0.5 µM under 20 min? Item: COc1ccc2nc(C)cc(OCC(=O)Nc3cc(C)ccc3C)c2c1 class 0

Report whether reported half-life at 0.5 µM is lower than 20 min (strictly) for COc1ccc2nc(C)cc(OCCNc3cc(C)cc(C)c3)c2c1 class 0

---

- assay-protocol: Chromatographic hydrophobicity index, log D of the compound in phosphate buffer at pH 7.4 by UV-HPLC analysis
- Format: physicochemical
Listing of recorded chromatographic logD by entry.
// response body must contain only the number

The following molecules have reported results that may help.
- COc1ccc2nc(C)cc(OCC(=O)Nc3cc(C)c(OC)c(C)c3)c2c1: 4.99
- COc1ccc2nc(C)cc(OCC(=O)Nc3cccc(C)c3)c2c1: 4.83
- COc1ccc2nc(C)cc(OCC(=O)Nc3ccc(Br)c(C)c3)c2c1: 5.95

For the molecule COc1ccc2nc(C)cc(OCc3ccc4ccccc4n3)c2c1 , what chromatographic logD is on record? 5.48

// query chromatographic logD value for entry COc1ccc2c(OCC(=O)Nc3cc(C)cc(C)c3)cc(C)nc2c1 5.59

---

# Lookup of reported IC50 at 48 h keyed by entry
- assay-protocol: Cytotoxicity against human HepG2 cells assessed as cell growth inhibition incubated for 48 hrs by CellTiter-Glo reagent based analysis
- Format: toxicity

* COc1ccc2nc(C)cc(OCC(=O)Nc3cccnc3)c2c1 | > 100 µM
* COc1ccc2nc(C)cc(OCC(=O)Nc3ccccn3)c2c1 | > 100 µM
* Cc1cc(C)cc(NC(=O)COc2cc(C(F)(F)F)nc3c(C(F)(F)F)cccc23)c1 | > 100 µM
* COc1ccc2nc(C)cc(OCC(=O)Nc3ccc(Cl)cc3Cl)c2c1 | > 100 µM
* COc1ccc2nc(C)cc(OCC(=O)Nc3cc(C)ccc3OC)c2c1 | > 100 µM

Given the molecule COc1ccc2nc(C)cc(OCC(=O)Nc3cc(F)cc(F)c3)c2c1 , what is its reported IC50 at 48 h? > 100 µM

Item under review: COc1ccc2nc(C)cc(OCC(=O)Nc3ccccc3OC)c2c1 . Reported IC50 at 48 h? > 100 µM

// lookup IC50 at 48 h for Cc1cc(C)cc(NC(=O)COc2cc(C)nc3ccc(OCc4ccccc4)cc23)c1 > 100 µM

What measured IC50 at 48 h goes with COc1ccc2nc(C)cc(OC3CCN(c4ccccc4)C3=O)c2c1 (stereo unspecified) ? 100 µM

Any idea what its IC50 at 48 h is? The molecule is CCOc1ccc2nc(C(F)(F)F)cc(OCC(=O)Nc3cc(C)cc(C)c3)c2c1 > 100 µM

Query: IC50 at 48 h; subject: COc1ccc2nc(C)cc(OCc3nc4cc(C)ccc4o3)c2c1 > 100 µM

The measurements presented in this section are drawn from ChEMBL document CHEMBL5252523.
